// data source = patent EP0241837B1

Test: Stability of Compound Ia (5 mg/ml) in aqueous solutions on storage at 56°C
Assay type: physicochemical
Details: 25% (w/v) glycerol, 5mg/ml, solvent 25% (w/v) Glycerol, calculated dielectric constant 71.4, 56°C, 4 weeks; read-out: % Remaining (4 weeks)
measuredProperty: remaining at 672 h (%)

compound="CCN(CC)CCNC(=O)c1cc(Cl)c(N)cc1OC(C)C(C)=O (stereo not shown) [Compound Ia]" measuredproperty="remaining at 672 h" numericvalue=96.8

====

Assay: Stability of Compound Ia (5 mg/ml) in aqueous solutions on storage at 56°C
Assay type: physicochemical
Details: 15% (w/v) glycerol, 5mg/ml, solvent 15% (w/v) Glycerol, calculated dielectric constant 71.8, 56°C, 8 weeks; read-out: %Remaining (8 weeks)
measuredProperty: remaining at 1344 h (%)

molecule="CCN(CC)CCNC(=O)c1cc(Cl)c(N)cc1OC(C)C(C)=O (stereo not shown)" measuredproperty="remaining at 1344 h" resultunits=% numericvalue=94.2
